Biological target: T1, Human CD137 shuffle 5 (amino acids 48-88 replaced by African elephant CD137) (human, amino acids 48-88 from African …, UniProt Q07011 24-255)
T1 construct: also called shuffle construct 5
T1 chain: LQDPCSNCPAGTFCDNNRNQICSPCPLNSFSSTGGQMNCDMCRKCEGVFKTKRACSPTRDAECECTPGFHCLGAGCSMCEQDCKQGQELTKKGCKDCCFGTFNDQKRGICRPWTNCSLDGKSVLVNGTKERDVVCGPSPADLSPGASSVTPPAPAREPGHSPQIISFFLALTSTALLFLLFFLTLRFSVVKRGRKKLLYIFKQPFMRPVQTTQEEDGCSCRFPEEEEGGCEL
Assay: flow cytometry on transfected HEK293T-17 cells, 1 µg/mL antibody
readout.kind: binding result

# annotated cases, reported binding result shown
CD137 antibody clone 008 (rabbit) (antibody, human IgG1, kappa, V domains shown, also called Clone 8; CD137 clone 008) VH: QSLEESGGRLVTPGTPLTLTCTASGFSLSSYDMSWVRQAPGKGLEYIGYISSSGNTYYASWAKSRFTISKTSTTVDLKITSPTTEDTATYFCAREGDYWDFNLWGPGTLVTVSS VL: AQVLTQTPSSVSAAVGGTVTINCQASQSISNLLAWYQQKPGQRPRLLIYRASTLASGVPSRFKGSGSGTEFTLTISDLESEDAATYYCAGGFPGLDTGATFGGGTEAVVTR    binds
CD137 antibody clone 007 (rabbit) (antibody, human IgG1, kappa, V domains shown, also called Clone 7; CD137 clone 007) VH: QSLEESGGRLVTPGTPLTLTCTASGFSLSSYDVSWVRQAPGKGLEYIGFIGSDGSAHYATWVKGRFTISKTSTTVDLKITSPTTEDTATYFCARDWNDYWAHDLWGPGTLVTVSS VL: AQVLTQTTSPVSAAVGGTVTINCQASQIVTSKSALSWYQQKPGQPPRLLIYKASTLASGVPSRFSGSGSGTQFTLTISDLESDDAATYYCAGGYYNSGDLNPFGGGTEVVVKR    binds
CD137 antibody clone 011 (rabbit) (antibody, human IgG1, kappa, V domains shown, also called Clone 11; CD137 clone 011) VH: QSLEESGGRLVTPGTPLTLTCTVSGIDLSSYHMCWVRQAPGKGLEYIGYIAYGGNTYYANWAKGRFTISKTSTTVDLRITSPTTEDTATYFCARGYSEDSYWGLWGPGTLVTVSS VL: AYDMTQTPASVEAAVGGTVTIKCQASQNIENYLAWYQQKPGQPPKLLIYDTSKLTSGVPSRFSGSGSGTDFTLTISGVQSDDAATYYCQQDYGIIFVDNIFGGGTEVVVKR    binds
CD137 antibody clone 004 (rabbit) (antibody, human IgG1, kappa, V domains shown, also called Clone 4; CD137 clone 004) VH: QSLEESGGRLVTPGTPLTLTCTASGFSLSRYDMSWVRQAPGKGLEYIGVISSSGGTNYANWAKGRFTISKTSTTVDLKITSPTTEDTATYFCAREGDYWDFNLWGPGTLVTVSS VL: AQVLTQTPSSVSAAVGGTVTINCQASQSISNLLAWYQQKPGQPPKLLIYGASTLASGVPSRFSGSGSGTEFTLTISDLESDDAATYYCAGGFPGLDTVAAFGGGTEAVVTR    binds
CD137 antibody clone 003 (rabbit) (antibody, human IgG1, kappa, V domains shown, also called Clone 3; CD137 clone 003) VH: QSVEESGGRLVTPGTPLTLTCTASGFTISSYHMIWVRQAPGEGLEWIGDIYGGTATTDYASWAKGRFTISKTSTTVDLKMTSLTTEDTATYFCARARYSGGSYANYVFNLWGQGTLVTVSS VL: DIVMTQTPASVEAAVGGTVTIKCQASQSISSYLAWYQQKPGQPPKLLIYRTSTLESGVPSRFKGSGSGTEFTLTISDLESADAATYYCQGYDWSSSNRYDNTFGGGTEVVVKR    binds

API: the following record is the query input.
Entry under review: CD137 antibody clone 005 (rabbit) (antibody, human IgG1, kappa, V domains shown, also called Clone 5; CD137 clone 005) VH: QSVEESGGRLVTPGTPLTLTCTASGFTISDFHVTWVRQAPGKGLEWIGTIITSASTTAYATWARGRFTISKSSTTVNLKIVSPTTEDTATYFCARSTYTDTSGYYFDFWGQGTLVTVSS VL: AQVLTQTASPVSAAVGGTVIINCQSSQSIYNGNRLSWYQQKPGQPPKLLIYSASTLASGVSSRFKGSGSGTQFTLAISDVQSDDAATYYCLGSYDCDSADCFAFGGGTEVVVER . Reported binding result? binds
